These data points were gathered from ChEMBL document CHEMBL5113380.

For reference, Ki measured on Glutamate receptor ionotropic, kainate 2 (Homo sapiens):
// units = µM; emit number, no label

See these solved cases before continuing.
>>> data_value("O=C(O)c1cc(-c2ccc3[nH]c(=O)c(=O)[nH]c3c2)ccc1Cl")
33
>>> data_value("O=C(Nn1c(=O)c(=O)[nH]c2cc(C#CCO)ccc21)c1ccccc1")
9.78
>>> data_value("N[C@@H](Cc1ccc2[nH]c(=O)c(=O)[nH]c2c1)C(=O)O")
136
>>> data_value("N[C@@H](CCc1ccc2[nH]c(=O)c(=O)[nH]c2c1)C(=O)O")
9.52
>>> data_value("O=C(O)c1ccc(-c2ccc3[nH]c(=O)c(=O)[nH]c3c2)cc1")
48

Let us move to another entry and its Ki.
(Q) Returns the measured Ki for the input compound. Input: O=C(Nn1c(=O)c(=O)[nH]c2cc(C(F)(F)F)c(F)cc21)c1ccccc1O
(A) 0.908

###

Species on record: Homo sapiens
Assay: Inhibition of human TRK relative to control
Design: concentration or dose not given beside the values
Conditions: concentration not given here
# label = Satisfied if inhibition >= 60% else Not satisfied

>>> assigned_category("Cc1nn(-c2ccccc2)c(N2CCN(S(=O)(=O)c3ccccc3)CC2)c1/C=N/Nc1nc2ccccc2nc1O")
"Not satisfied"
>>> assigned_category("Cc1nn(-c2ccccc2)c(N2CCN(C)CC2)c1/C=N/Nc1nc2ccccc2nc1O")
"Satisfied"
>>> assigned_category("Cc1nn(-c2ccccc2)c(Cl)c1/C=N/Nc1nc2ccccc2[nH]c1=O")
"Not satisfied"
>>> assigned_category("Cc1nn(-c2ccccc2)c(SCCCO)c1/C=N/Nc1nc2ccccc2[nH]c1=O")
"Satisfied"
>>> assigned_category("Cc1nn(-c2ccccc2)c(N(C)C)c1/C=N/Nc1nc2ccccc2nc1O")
"Satisfied"
>>> assigned_category("Cc1nn(-c2ccccc2)c(N2CCCCC2)c1/C=N/Nc1nc2ccccc2nc1O")
"Satisfied"

(Q) Reported inhibition reaches at least 60% for Cc1nn(-c2ccccc2)c(N2CCOCC2)c1/C=N/Nc1nc2ccccc2nc1O ?
(A) Satisfied

(Q) Reported inhibition reaches at least 60% for CC(=O)N1CCN(c2c(/C=N/Nc3nc4ccccc4nc3O)c(C)nn2-c2ccccc2)CC1 ?
(A) Satisfied

(Q) Reported inhibition reaches at least 60% for Cc1nn(-c2ccccc2)c(N2CCNCC2)c1/C=N/Nc1nc2ccccc2nc1O ?
(A) Not satisfied

###

Form field: MIC (one value per entry).
Tested on: Candida
Test: Antifungal activity against Candida species isolate 2
Assay type: functional
// units = µg/mL; emit number, no label

See these solved cases before continuing.
>>> data_value("O=c1[nH]c2cc([N+](=O)[O-])ccc2nc1CBr")
31.2
>>> data_value("O=c1[nH]c2ccc(C(F)(F)F)cc2nc1CBr")
62.5
>>> data_value("O=c1[nH]c2ccc(C(F)(F)F)cc2nc1C(F)(F)F")
125

(Q) Returns the measured MIC for the input compound. Input: O=c1[nH]c2cc(F)c(F)cc2nc1CBr
(A) 125

(Q) Returns the measured MIC for the input compound. Input: O=c1[nH]c2cc(C(F)(F)F)ccc2nc1C(F)(F)F
(A) 125

###

Biological target: Alpha amylase (Homo sapiens)
Sequence (P0DUB6 whole entry): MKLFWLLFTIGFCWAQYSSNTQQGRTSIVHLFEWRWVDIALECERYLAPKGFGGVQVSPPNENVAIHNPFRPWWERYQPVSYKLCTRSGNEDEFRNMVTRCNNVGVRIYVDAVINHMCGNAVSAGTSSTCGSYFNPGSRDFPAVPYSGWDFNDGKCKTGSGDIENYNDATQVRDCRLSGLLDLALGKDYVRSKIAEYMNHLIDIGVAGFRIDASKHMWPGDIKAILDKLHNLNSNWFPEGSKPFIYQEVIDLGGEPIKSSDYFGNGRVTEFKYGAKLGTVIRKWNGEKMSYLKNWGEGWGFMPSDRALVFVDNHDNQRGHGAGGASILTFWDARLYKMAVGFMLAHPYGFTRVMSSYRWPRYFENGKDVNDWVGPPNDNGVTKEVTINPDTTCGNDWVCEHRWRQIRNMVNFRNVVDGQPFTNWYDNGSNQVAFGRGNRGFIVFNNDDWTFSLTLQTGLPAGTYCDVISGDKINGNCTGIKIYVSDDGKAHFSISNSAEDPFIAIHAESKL
Test: Inhibition of alpha-amylase (unknown origin)
readout name: IC50 (µM)
// units = µM; emit number, no label

>>> data_value("O=c1[nH]c2ccccc2nc1N/N=C/c1cccs1")
395.84

(Q) Returns the measured IC50 for the input compound. Input: O=c1[nH]c2ccccc2n2c(-c3ccc([N+](=O)[O-])cc3[N+](=O)[O-])ccc12
(A) 806.19

(Q) Returns the measured IC50 for the input compound. Input: O=c1[nH]c2ccccc2n2c(-c3ccc(Cl)c(Cl)c3)ccc12
(A) 431.81

(Q) Returns the measured IC50 for the input compound. Input: Cc1ccc(NC(=O)Cn2c(=O)c(C)nc3ccccc32)c([N+](=O)[O-])c1
(A) 199.7

(Q) Returns the measured IC50 for the input compound. Input: COc1ccc(C2SCC(=O)N2c2ccc3nc(Cc4ccc(O)cc4)c(=O)[nH]c3c2)cc1 (stereo not drawn)
(A) 301.59

(Q) Returns the measured IC50 for the input compound. Input: O=c1[nH]c2ccccc2n2c(-c3ccc(O)cc3O)ccc12
(A) 1087.43

(Q) Returns the measured IC50 for the input compound. Input: CC(C)c1nc2ccc(N3C(=O)CSC3c3ccc([N+](=O)[O-])cc3)cc2[nH]c1=O (stereo not drawn)
(A) 356.32

(Q) Returns the measured IC50 for the input compound. Input: COc1cccc(/C=N/Nc2nc3ccccc3[nH]c2=O)c1
(A) 492.68

###

Target: Bromodomain-containing protein 4 (Homo sapiens, UniProt O60885)
Assay: Inhibition of BRD4 (unknown origin) using histone-H4 as substrate incubated for 15 mins and measured after 1 hr by AlphaScreen assay
readout name: IC50 (nM)
// units = nM; emit number, no label

See these solved cases before continuing.
>>> data_value("CCC1C(=O)Nc2ccc(-c3c(C)noc3C)cc2N1Cc1ccccc1 (stereo not drawn)")
73
>>> data_value("Cc1noc(C)c1-c1ccc2c(c1)C(Cc1ccccc1)NC(=O)N2C (stereo not drawn)")
32

Let us move to another entry and its IC50.
(Q) Returns the measured IC50 for the input molecule. Input: Cc1noc(C)c1-c1ccc2c(c1)C(c1ccccc1)N(Cc1cn(CCOCCOCCOCCn3cc(CC4C(=O)N(C)c5ccc(-c6c(C)noc6C)cc5N4c4ccccc4)nn3)nn1)C(=O)N2C (stereo not drawn)
(A) 7.7

###

Target: Glutamate [NMDA] receptor
Assay: Displacement of [3H]glycine from NMDA receptor (unknown origin)
Format: protein-complex assay, Homo sapiens
Form field: IC50 (one value per entry).
Lab note: write values as number then unit, every time.

(Q) Returns the measured IC50 for the input molecule. Input: Oc1nc2cc(Cl)c(Cl)cc2n2ccnc12
(A) 1260 nM

(Q) Returns the measured IC50 for the input molecule. Input: CCCc1nnc2c(O)nc3cc(Cl)c(Cl)cc3n12
(A) 3920 nM

(Q) Returns the measured IC50 for the input molecule. Input: Oc1nc2cc(Cl)c(Cl)cc2n2cnnc12
(A) 630 nM

###

Form field: IC50 (one value per entry).
Molecular target: 3',5'-cyclic phosphodiesterase
Experiment: Inhibition of cAMP-specific 3',5'-cyclic phosphodiesterase (unknown origin)
Type: protein assay, Homo sapiens
// units = µM; emit number, no label

See these solved cases before continuing.
>>> data_value("CCc1nc(C)c2c(O)nc3ccccc3n12")
2
>>> data_value("Oc1nc2cccnc2n2ccnc12")
44

(Q) Returns the measured IC50 for the input compound. Input: CCc1ncc2c(O)nc3cccnc3n12
(A) 1

###

Experiment: Cytotoxicity against rat myoblast L6 cells
Assay type: toxicity, cell-based
readout name: pIC50
Bear in mind: pIC50 is minus log10 of a mol/L concentration; give just that figure.

>>> data_value("CN1CC(=O)N(C)c2cc([N+](=O)[O-])ccc21")
4.11

Let us move to another entry and its pIC50.
(Q) Returns the measured pIC50 for the input molecule. Input: O=C1Nc2cc([N+](=O)[O-])ccc2N2CCCC12 (configuration not stated)
(A) 4.33

###

System: BEAS-2B
Assay: Antiproliferative activity against human BEAS-2B cells
Type: functional, cell-based
pIC50: −log10 of the molar value.
Form field: pIC50 (one value per entry).

See these solved cases before continuing.
>>> data_value("O=C(Cn1c(=O)c(/C=C/c2ccncc2)nc2ccccc21)Nc1ccc(F)cc1")
"< 4.00"
>>> data_value("O=C(Cn1c(=O)c(/C=C/c2ccncc2)nc2ccccc21)Nc1ccc(Cl)cc1")
"< 4.00"

(Q) Returns the measured pIC50 for the input compound. Input: O=C(Cn1c(=O)c(/C=C/c2ccncc2)nc2ccccc21)Nc1ccc(Cl)c(Cl)c1
(A) < 4.00
